Ref: patent US20070173488A1

Entries annotated with measured IC50
# systemName: T315I Abl (Mus musculus, UniProt P00520, T315I)
# Construct: The c-Abl T315I KD (kinase domain) was purified as follows
# Sequence (P00520 242-493 T315I limits assumed): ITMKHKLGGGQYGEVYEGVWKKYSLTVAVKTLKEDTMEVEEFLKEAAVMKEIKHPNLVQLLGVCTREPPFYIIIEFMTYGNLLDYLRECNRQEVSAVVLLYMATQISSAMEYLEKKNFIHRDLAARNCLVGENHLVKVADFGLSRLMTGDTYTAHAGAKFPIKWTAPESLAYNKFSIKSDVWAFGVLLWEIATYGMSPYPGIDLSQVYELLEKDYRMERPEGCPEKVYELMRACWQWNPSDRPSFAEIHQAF
# assayText: cAbl Luminescence-based Enzyme Assay (Kinase-Glo)

smilesInput: O=C(Nc1nc2[nH]nc(-n3cncc3-c3ccccn3)c2s1)C1CC1
systemName: T315I Abl (Mus musculus, UniProt P00520, T315I)
IC50: < 0.1 µM
//
smilesInput: O=C(Nc1nc2[nH]nc(-n3cncc3-c3ccccc3)c2s1)C1CC1
systemName: T315I Abl (Mus musculus, UniProt P00520, T315I)
IC50: 0.1 to 1 µM
//
smilesInput: O=C(Nc1nc2[nH]nc(-n3cncc3-c3ccc4ccccc4c3)c2s1)C1CC1
systemName: T315I Abl (Mus musculus, UniProt P00520, T315I)
IC50: 1 to 10 µM

====

Entries annotated with measured pIC50
# systemName: CDK4/CycD1 (Homo sapiens, UniProt P11802)
# assayText: 33PanQuinase Activity Assay (ProQuinase GmbH)
pIC50: −log10 of the molar value.
measuredQuantity: pIC50

smilesInput: NC(=O)COc1ccc(-c2cncn2-c2n[nH]c3nc(NC(=O)C4CC4)sc23)c(Cl)c1
measured: > 7.00

smilesInput: O=C(Nc1nc2[nH]nc(-n3cncc3-c3cc(Cl)cc(Cl)c3Cl)c2s1)C1CC1
measured: 5.00 to 6.00

smilesInput: O=C(Nc1cc[nH]n1)Nc1nc2[nH]nc(-n3cncc3-c3ccccc3Cl)c2s1
measured: 6.00 to 7.00

smilesInput: O=C(Nc1nc2[nH]nc(-n3cncc3-c3c(Cl)cccc3Cl)c2s1)C1CC1
measured: > 7.00

smilesInput: O=C(Nc1nc2[nH]nc(-n3cncc3-c3cccc(F)c3F)c2s1)C1CC1
measured: > 7.00

smilesInput: O=C(Nc1nc2[nH]nc(-n3cncc3-c3ccccc3Cl)c2s1)C1CC1
measured: > 7.00

====

Target protein (sequence): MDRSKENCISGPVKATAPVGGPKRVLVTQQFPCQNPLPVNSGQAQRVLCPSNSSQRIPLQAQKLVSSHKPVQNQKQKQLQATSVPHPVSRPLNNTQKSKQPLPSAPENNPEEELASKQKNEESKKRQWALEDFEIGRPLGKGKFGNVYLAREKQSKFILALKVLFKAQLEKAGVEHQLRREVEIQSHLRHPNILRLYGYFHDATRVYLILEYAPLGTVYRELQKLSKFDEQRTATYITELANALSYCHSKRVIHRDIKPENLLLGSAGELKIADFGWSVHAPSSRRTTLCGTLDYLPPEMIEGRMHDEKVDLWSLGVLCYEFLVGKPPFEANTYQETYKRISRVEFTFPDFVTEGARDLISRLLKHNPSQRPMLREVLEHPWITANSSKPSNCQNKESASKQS
Entries annotated with measured IC50

smilesInput: O=C(Nc1nc2[nH]nc(-n3cncc3-c3ccc4ccccc4c3)c2s1)C1CC1
IC50: 1 to 10 µM

smilesInput: O=C(Nc1nc2[nH]nc(-n3cncc3-c3ccccn3)c2s1)C1CC1
IC50: > 10 µM

====

# systemName: Met (Homo sapiens, UniProt P08581)
# Sequence (P08581 1078-1345 limits assumed): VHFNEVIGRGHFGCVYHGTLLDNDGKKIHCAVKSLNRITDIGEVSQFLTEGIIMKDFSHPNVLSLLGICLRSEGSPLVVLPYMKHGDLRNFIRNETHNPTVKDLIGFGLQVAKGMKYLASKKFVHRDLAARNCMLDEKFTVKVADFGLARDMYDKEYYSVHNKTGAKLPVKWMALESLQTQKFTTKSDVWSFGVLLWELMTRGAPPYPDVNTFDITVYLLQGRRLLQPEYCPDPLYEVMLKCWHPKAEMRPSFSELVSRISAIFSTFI
# assayText: MET Luminescence-based Enzyme Assay (Kinase-Glo)
# Format: biochemical
# Design: Sf9 insect cell culture expressing the kinase domain of human Met; 6x Histidine tag (TEV-cleavable) (cleaved yes); made in house; host or cells: Sf9 insect cells

smilesInput: O=C(Nc1nc2[nH]nc(-n3cncc3-c3c(Cl)cccc3Cl)c2s1)C1CC1
IC50: 1 to 10 µM

smilesInput: O=C(Nc1nc2[nH]nc(-n3cncc3-c3cccc(F)c3F)c2s1)C1CC1
IC50: 1 to 10 µM

smilesInput: O=C(Nc1nc2[nH]nc(-n3cncc3-c3ccccc3)c2s1)C1CC1
IC50: > 10 µM

smilesInput: CS(=O)(=O)c1ccc(F)cc1-c1cncn1-c1n[nH]c2nc(NC(=O)C3CC3)sc12
IC50: > 10 µM

smilesInput: O=C(Nc1nc2[nH]nc(-n3cncc3-c3cc(Cl)cc(Cl)c3Cl)c2s1)C1CC1
IC50: 1 to 10 µM

smilesInput: COc1ccc2nc(Cl)c(-c3cncn3-c3n[nH]c4nc(NC(=O)C5CC5)sc34)cc2c1
IC50: 0.1 to 1 µM

smilesInput: O=C(Nc1nc2[nH]nc(-n3cncc3-c3ccccc3Cl)c2s1)C1CC1
IC50: 0.1 to 1 µM

smilesInput: O=C(Nc1nc2[nH]nc(-n3cncc3-c3c(Cl)ccc(Cl)c3Cl)c2s1)C1CC1
IC50: 1 to 10 µM

smilesInput: NC(=O)COc1ccc(-c2cncn2-c2n[nH]c3nc(NC(=O)C4CC4)sc23)c(Cl)c1
IC50: 0.1 to 1 µM

smilesInput: O=C(Nc1nc2[nH]nc(-n3cncc3-c3ccc4ccccc4c3)c2s1)C1CC1
IC50: 1 to 10 µM

smilesInput: O=C(Nc1nc2[nH]nc(-n3cncc3-c3ccccn3)c2s1)C1CC1
IC50: > 10 µM

smilesInput: O=C(Nc1cc[nH]n1)Nc1nc2[nH]nc(-n3cncc3-c3ccccc3Cl)c2s1
IC50: > 10 µM
